- MEASUREMENT PARAMETERS: 293.15 K; 4000 kPa; Liquid
Label scheme for mass density: lower than 1000 kg/m3 is 0 (no), 1000 kg/m3 and above is 1 (yes).

// known answers, use as guide
COMPOUND: CCCCCCCCCCCCCC[P+](CCCCCC)(CCCCCC)CCCCCC.[Br-] [tetradecyltrihexylphosphonium bromide]
ASSIGNED LABEL: 0 (no)
//
COMPOUND: CCCCCCCCCCCCCC[P+](CCCCCC)(CCCCCC)CCCCCC.O=S(=O)([N-]S(=O)(=O)C(F)(F)F)C(F)(F)F
ASSIGNED LABEL: 1 (yes)
//
COMPOUND: CCCCCCCCCCCCCC[P+](CCCCCC)(CCCCCC)CCCCCC.CS(=O)(=O)[O-] [trihexyltetradecylphosphonium methanesulfonate]
ASSIGNED LABEL: 0 (no)
//
COMPOUND: CCCCCCCCCCCCCC[P+](CCCCCC)(CCCCCC)CCCCCC.[Cl-] [trihexyl(tetradecyl)phosphonium chloride]
ASSIGNED LABEL: 0 (no)

Moving on to the next compound.
Prompt: Is mass density at least 1000 kg/m3? Consider CCCCCCCCCCCCCC[P+](CCCCCC)(CCCCCC)CCCCCC.N#C[N-]C#N [tetradecyl(trihexyl)phosphonium dicyanamide]
Response: 0 (no)

---

- MEASUREMENT PARAMETERS: 323.15 K; 40000 kPa; Liquid
± gives the expanded uncertainty stated by the source.
# reported mass density; entries follow

Please review the entries below; each comes with its answer.
MOLECULE: CCCCCCCCCCCCCC[P+](CCCCCC)(CCCCCC)CCCCCC.[Cl-] [trihexyl(tetradecyl)phosphonium chloride]
RESULT: 894.8 ± 2 kg/m3

MOLECULE: CCCCCCCCCCCCCC[P+](CCCCCC)(CCCCCC)CCCCCC.N#C[N-]C#N [tetradecyl(trihexyl)phosphonium dicyanamide]
RESULT: 903.4 ± 1.9 kg/m3

MOLECULE: CCCCCCCCCCCCCC[P+](CCCCCC)(CCCCCC)CCCCCC.O=S(=O)([N-]S(=O)(=O)C(F)(F)F)C(F)(F)F
RESULT: 1072.4 ± 1.6 kg/m3

MOLECULE: CCCCCCCCCCCCCC[P+](CCCCCC)(CCCCCC)CCCCCC.[Br-] [tetradecyltrihexylphosphonium bromide]
RESULT: 960.2 ± 1.1 kg/m3

Could you now consider this next molecule?
Prompt: Which mass density value is on record for CCCCCCCCCCCCCC[P+](CCCCCC)(CCCCCC)CCCCCC.CS(=O)(=O)[O-] [trihexyltetradecylphosphonium methanesulfonate] ?
Response: 935.5 ± 1.4 kg/m3

---

- MEASUREMENT PARAMETERS: 323.15 K; 5000 kPa; Liquid
# mass density annotations
Quick reminder: number only, in kg/m3, skip the unit.

Prompt: Quick check: mass density of CCCCCCCCCCCCCC[P+](CCCCCC)(CCCCCC)CCCCCC.[Br-] [tetradecyltrihexylphosphonium bromide] ?
Response: 941

Prompt: Request the reported mass density associated with CCCCCCCCCCCCCC[P+](CCCCCC)(CCCCCC)CCCCCC.O=S(=O)([N-]S(=O)(=O)C(F)(F)F)C(F)(F)F
Response: 1051.4

Prompt: Tell me the measured mass density of CCCCCCCCCCCCCC[P+](CCCCCC)(CCCCCC)CCCCCC.[Cl-] [trihexyl(tetradecyl)phosphonium chloride] , please.
Response: 877.6

Prompt: Request the reported mass density associated with CCCCCCCCCCCCCC[P+](CCCCCC)(CCCCCC)CCCCCC.CS(=O)(=O)[O-] [trihexyltetradecylphosphonium methanesulfonate]
Response: 916.6

Prompt: Consider the compound CCCCCCCCCCCCCC[P+](CCCCCC)(CCCCCC)CCCCCC.N#C[N-]C#N [tetradecyl(trihexyl)phosphonium dicyanamide] and give its measured mass density.
Response: 887

Taken from the NIST ThermoML archive (doi:10.1021/je101232g).
